Exercise: state measured melting point for each of the compounds provided.

Query: Tell me its melting point given O=C(Nc1c(F)cccc1F)c1c[nH]c2c(c1=O)CCCC2 as the entry.
Reply: 278 to 280 °C

Query: Tell me its melting point given COc1ccc(CNC(=O)c2c[nH]c3c(c2=O)CCCC3)cc1 as the entry.
Reply: 241 to 244 °C

Query: Tell me its melting point given O=C(Nc1ccc(F)cc1F)c1c[nH]c2c(c1=O)CCC2 as the entry.
Reply: 328 °C (dec.)

Query: Tell me its melting point given Cc1csc(NC(=O)c2c[nH]c3c(c2=O)CCCC3)n1 as the entry.
Reply: 350 to 352 °C

Query: Tell me its melting point given COc1ccccc1CNC(=O)c1c[nH]c2c(c1=O)CCC2 as the entry.
Reply: 243 to 244 °C

Query: Tell me its melting point given O=C(Nc1cccs1)c1c[nH]c2c(c1=O)CCCC2 as the entry.
Reply: 306 °C (dec.)

Query: Tell me its melting point given O=C(Nc1ccccc1)c1c[nH]c2c(c1=O)CCCC2 as the entry.
Reply: 299 to 300 °C

Query: Tell me its melting point given O=C(Nc1cccs1)c1c[nH]c2c(c1=O)CCC2 as the entry.
Reply: 210 °C (dec.)

Query: Tell me its melting point given O=C(Nc1cccc(F)c1)c1c[nH]c2c(c1=O)CCC2 as the entry.
Reply: 340 °C (dec.)

Query: Tell me its melting point given O=C(NCc1ccccc1F)c1c[nH]c2c(c1=O)CCC2 as the entry.
Reply: 259 to 261 °C

Query: Tell me its melting point given O=C(NCc1ccc(F)cc1)c1c[nH]c2c(c1=O)CCCCC2 as the entry.
Reply: 219 to 222 °C
